- test_target: T1, IRF-3 WT (UniProt Q14653 1-427)
- T1 sequence: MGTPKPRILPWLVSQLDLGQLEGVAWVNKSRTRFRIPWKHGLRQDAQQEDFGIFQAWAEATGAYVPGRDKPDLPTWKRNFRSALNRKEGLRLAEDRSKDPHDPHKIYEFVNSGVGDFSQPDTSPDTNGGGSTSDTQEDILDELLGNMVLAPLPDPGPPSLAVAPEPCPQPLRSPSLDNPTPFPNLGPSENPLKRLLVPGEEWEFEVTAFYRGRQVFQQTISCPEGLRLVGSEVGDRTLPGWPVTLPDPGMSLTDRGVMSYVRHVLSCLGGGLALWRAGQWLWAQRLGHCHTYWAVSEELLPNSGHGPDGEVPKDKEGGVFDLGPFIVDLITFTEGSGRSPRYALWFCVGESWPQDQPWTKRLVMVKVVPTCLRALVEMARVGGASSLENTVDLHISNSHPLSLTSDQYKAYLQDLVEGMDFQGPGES
- assay_text: fluorescence anisotropy
readout_label: pKd
Answers are plain numbers, as −log10 of the molar value.

PRDI 13-bp (dsDNA) DNA 1: GAGAAGTGAAAGT DNA 2: ACTTTCACTTCTC    6.10

From here, focus on the item given below.
Req: Returns the measured pKd for the input binder. Input: PRDIII-PRDI 26-bp (dsDNA) DNA 1: GCGAACTGAAAGGGAGAAGTGAAAGT DNA 2: ACTTTCACTTCTCCCTTTCAGTTCGC
Resp: 5.91
